test system: A498 renal; assay: NCI-60 one-dose screen, 48 h; conditions: 10 µM unless noted
About 83,000 compounds went through this panel and 20% of them were active in at least one assay; those are over-represented in the sample as a whole. Calls of active or inactive are those of the source. How the source made its calls: active means growth percent below 10; inactive means the rest.
Labels: active, inactive

>>> assigned_class("CO[C@@H]([CH2][Hg][S]C#N)[C@@H]([CH2][Hg][S]C#N)OC")
"inactive"
>>> assigned_class("O=C(O)CC(Br)C(=O)CBr (centres undefined)")
"inactive"
>>> assigned_class("Nc1ncnc2c1c(C(=O)NO)cn2C1OC(CO)C(O)C1O (centres undefined)")
"active"
>>> assigned_class("CC(C)CCC1(CCO)C(=O)NC(=S)NC1=O")
"inactive"
>>> assigned_class("CC(=O)[O][Hg][c]1nc2c(c(=O)n(C)c(=O)n2C)n1C")
"inactive"
>>> assigned_class("CC[C@]12C=CCN3CC[C@@]4(c5ccc(OC)cc5N(C)[C@H]4[C@@](O)(C(=O)OC)[C@@H]1OC(=O)CCCN1CCN(CCCC(=O)O[C@@H]4[C@]5(CC)C=CCN6CC[C@@]7(c8ccc(OC)cc8N(C)[C@H]7[C@@]4(O)C(=O)OC)[C@@H]65)CC1)[C@@H]32")
"active"
>>> assigned_class("COP(=S)(OC)Oc1ccc(SC)c(C)c1")
"inactive"
>>> assigned_class("O=S(=O)(Cl)c1ccccc1 (tested in a mixture with another compound)")
"inactive"
>>> assigned_class("CC(=O)O[C@H]1CCC2C3CCC4=C/C(=N/O)CCC4(C)C3CCC21C (some centres undefined)")
"inactive"
